Hey, just so you know, these numbers are from PubChem BioAssay (NCI).

assay: NCI Yeast Anticancer Drug Screen. Data for the sgs1 strain (AID 173);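 further: 0% = growth of vehicle-only control cultures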; details: S. cerevisiae sgs1 mutant, at 1.2 µM, stronger effect = higher value
Compounds without any hit were thinned out: in the full panel of roughly 79,000, 15% have a hit.
result_type: growth inhibition (%)
Give the quantity in %, number only.

### Prompt Which growth inhibition is reported for this compound? CN(C)c1ccc2c(SCC(=O)OCC(=O)[C@@]3(O)CC[C@H]4[C@@H]5CCC6=CC(=O)C=C[C@]6(C)[C@H]5C(=O)C[C@@]43C)c3ccc(N(C)C)cc3nc2c1
### Response 2

### Prompt Also need O=C(O)Cc1cc(F)ccc1C(=O)O , thanks.
### Response 2

### Prompt Also need O=c1ssc(=Nc2ccccc2)n1-c1ccccc1 , thanks.
### Response -15

### Prompt Also need O=C(O)c1cc2ccc(Cl)cc2c(O)c1C1=CCCCC1 , thanks.
### Response 23

### Prompt Also need CCCCCOC(=S)SC(=O)OCC , thanks.
### Response -3

### Prompt Also need CC12C(=O)OC(=O)C(c3ccccc31)c1ccccc12 , thanks.
### Response -12

### Prompt Also need CC(=O)Nc1ccc(/C=C/[N+](=O)[O-])cc1 , thanks.
### Response -3

### Prompt Also need CC(C)C(C)/C=C\C(C)C1CCC2C3=CC=C4CC(O)CCC4(C)C3CCC21C (configuration not stated) , thanks.
### Response -1

### Prompt Also need CN(C)CCNC(=O)c1cccc2c1Oc1c(cccc1[N+](=O)[O-])O2 , thanks.
### Response -10

### Prompt Also need CCOC1Oc2ccccc2-c2nc(N)ncc21 (configuration not stated) , thanks.
### Response 3

### Prompt Also need C=C1CC(CCCl)(c2ccccc2)OC1=O (configuration not stated) , thanks.
### Response 4

### Prompt Also need OC1(c2ccccc2)CCCc2ccc(Cl)cc21 (configuration not stated) , thanks.
### Response 0

---

test: NCI Yeast Anticancer Drug Screen. Data for the mgt1 strain (AID 153); details: S. cerevisiae mgt1 mutant growth inhibition; at 33.0 µM; stronger effect = higher value
About 79,000 compounds went through this panel and 15% of them were active in at least one assay; those are over-represented in the sample as a whole.
Record criterion met whenever growth inhibition is at 20% or higher; record criterion not met when lower.

### Prompt API: above_or_equal(metric=growth inhibition, cutoff=20%) for item O=C(O)Cc1cc(F)ccc1C(=O)O
### Response criterion met

### Prompt Also need CCOC1Oc2ccccc2-c2nc(N)ncc21 (stereo not given) , thanks.
### Response criterion not met

### Prompt Also need CCOC1=C/C(=N\Nc2ccc([N+](=O)[O-])cc2)CCC1 , thanks.
### Response criterion met

### Prompt Also need Cc1ccc2nc(-c3cccc([N+](=O)[O-])c3)oc(=O)c2c1 , thanks.
### Response criterion not met

### Prompt Also need O=C1C(Br)=C(c2ccccc2)O/C1=C/C(=O)c1ccc(Br)cc1 , thanks.
### Response criterion met

### Prompt Also need CCC(C)OC(=O)Nc1ccc(C)c(NC(=O)OC(C)CC)c1 (stereo not given) , thanks.
### Response criterion not met

### Prompt Also need NC(=S)NC(=S)Nc1ccccc1 , thanks.
### Response criterion not met

### Prompt Also need C[C@@](O)(/C=C/[C@H]1CC=CC(=O)O1)[C@@H](C[C@@H](O)\C=C/C=C\C=C\CO)OP(=O)(O)O , thanks.
### Response criterion met

### Prompt Also need N#CC(=Nc1ccccc1F)Nc1ccccc1F , thanks.
### Response criterion not met

### Prompt Also need O=C1Nc2ccc(Br)cc2C1=Nc1ccc2c(c1)OCO2 , thanks.
### Response criterion not met

### Prompt Also need CN(C)CCNC(=O)c1cccc2cc([N+](=O)[O-])ccc12 , thanks.
### Response criterion met

### Prompt Also need O=C1c2ccccc2C(=O)c2cc(CCl)ccc21 , thanks.
### Response criterion not met

### Prompt Also need O=C1N=C2SC=C(NC(=S)Nc3ccccc3)N2NC12c1ccccc1-c1ccccc12 , thanks.
### Response criterion met

### Prompt Also need CCCC(=O)Oc1c(C)cc([N+](=O)[O-])cc1[N+](=O)[O-] , thanks.
### Response criterion met

### Prompt Also need COc1cc(O)c2c(c1O)C(=O)c1cc(C)ncc1C2=O , thanks.
### Response criterion met

### Prompt Also need COc1cc([C@@H]2c3cc4c(cc3[C@H](OC3OC5COC(C(C)C)OC5C(O)C3O)C3COC(=O)[C@@H]32)OCO4)cc(OC)c1O (stereo not given in full) , thanks.
### Response criterion not met

### Prompt Also need CC(=O)ON=C1C=CC(=C(C#N)c2ccc(Cl)cc2)C=C1 , thanks.
### Response criterion met

### Prompt Also need COc1ccc(/C=C2\NC(=S)N(/C=C3\C(=O)Oc4ccccc4C3=O)C2=O)cc1 , thanks.
### Response criterion not met

### Prompt Also need CCOC(=N)c1ccc(O)c(OC)c1 , thanks.
### Response criterion not met

### Prompt Also need CCc1c[n+]([O-])c(C)cc1[N+](=O)[O-] , thanks.
### Response criterion not met

### Prompt Also need CN(CCN(C)Cc1ccccc1)Cc1ccccc1 , thanks.
### Response criterion not met

### Prompt Also need COc1ccc(NC(=O)CC2SC(=Nc3ccccc3C)NC2=O)c([N+](=O)[O-])c1 (stereo not given) , thanks.
### Response criterion not met

### Prompt Also need CC1CC[C@]2(C(=O)O)CCC3(C)C(=CC(=O)C4[C@@]5(C)CCC(=O)C(C)(C)C5CC[C@]43C)[C@@H]2[C@H]1C (stereo not given in full) , thanks.
### Response criterion met

### Prompt Also need OCC(CO)C(c1cccc2ccccc12)c1cccc2ccccc12 , thanks.
### Response criterion met

### Prompt Also need CC(O)=NC(Cc1ccc2ccccc2c1)C(O)=NC(Cc1ccc(Cl)cc1)C(O)=NC(Cc1c[nH]c2ccccc12)C(O)=NC(CO)C(O)=NC(Cc1ccc(O)cc1)C(O)=NC(CCCN=C(N)N)C(O)=NC(CC(C)C)C(O)=NC(CCCN=C(N)N)C(=O)N1CCCC1C(O)=NC(C)C(=N)O (stereo not given) , thanks.
### Response criterion not met

---

assay: NCI Yeast Anticancer Drug Screen. Data for the CLN2oe strain (AID 163);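 further: 0% = growth of vehicle-only control cultures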; conditions: S. cerevisiae CLN2oe strain, at 3.7 µM, stronger effect = higher value
Compounds without any hit were thinned out: in the full panel of roughly 79,000, 15% have a hit.
result_type: growth inhibition (%)
Give the quantity in %, number only.

### Prompt Which growth inhibition is reported for this compound? CN(C)CCOC1(Cc2ccc(F)cc2)CCC(C(C)(C)C)CC1 (stereo unspecified)
### Response -5

### Prompt Also need O=C(NCCCl)Sc1ccc(Cl)cc1 , thanks.
### Response -2

### Prompt Also need CC[N+]1(C)CCC(O)(c2ccc(OC)cc2)C(C(=O)c2ccc(OC)cc2)C1 (stereo unspecified) , thanks.
### Response -3

### Prompt Also need C[Si](C)(C)/C=C/CCNC(C#N)c1ccccc1 (stereo unspecified) , thanks.
### Response 10

### Prompt Also need CC(C)(C)C1=CC(=CC=C2C=CN(CCCCCCCCCCCO)C=C2)C=C(C(C)(C)C)C1=O , thanks.
### Response 10

### Prompt Also need O=C(O)CCCC1CCCc2c1ccc1ccccc21 (stereo unspecified) , thanks.
### Response -4

---

test: NCI Yeast Anticancer Drug Screen. Data for the wt2 strain (AID 169);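 further: 0% = growth of vehicle-treated yeast cultures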; conditions: S. cerevisiae wt2 strain growth inhibition; at 100.0 µM
Compounds without any hit were thinned out: in the full panel of roughly 79,000, 15% have a hit. The source made the active and inactive calls. Rule as the data show it: active = growth inhibition above about 70%; inactive = the rest.
Hello, when you answer, please use one of the following outcomes: active, inactive

### Prompt What call does the record list for CCOc1c(N=Nc2ccccc2OC)c(C)nn1C(=S)S ?
### Response active

### Prompt Also need CC(C)(C)N=C(NO)c1ccccc1 , thanks.
### Response inactive

### Prompt Also need Cc1c2cccc(Sc3ccccc3)c2c2c3c(cccc13)[S+](c1ccccc1)C2 (stereo not drawn) , thanks.
### Response active

### Prompt Also need c1ccc(CCN2CCc3ccccc3C2)cc1 , thanks.
### Response inactive

### Prompt Also need OC(CCNCc1ccccc1)c1ccc2ccccc2c1 (stereo not drawn) , thanks.
### Response active

### Prompt Also need O=C1C=C(c2ccccc2)OC1(c1ccccc1)N1CCOCC1 (stereo not drawn) , thanks.
### Response active

### Prompt Also need COc1ccc(/C=C2\NC(=S)N(/C=C3\C(=O)Oc4ccccc4C3=O)C2=O)cc1 , thanks.
### Response inactive

### Prompt Also need CCOC(=O)c1[nH]n(-c2ccccc2)c(=O)c1C=NC(=S)C(N)=S , thanks.
### Response active

### Prompt Also need N=C1N=Nc2nc(C3(c4nc5n(c4O)C(=N)N=N5)Cc4ccccc4C3=O)c(O)n21 (stereo not drawn) , thanks.
### Response active

### Prompt Also need CCN(CC)Cc1cc(Nc2c3ccccc3nc3c2[nH]c2ccccc23)cc(CN(CC)CC)c1O , thanks.
### Response inactive

### Prompt Also need CC1CC[C@]2(C(=O)O)CCC3(C)C(=CC(=O)C4[C@@]5(C)CCC(=O)C(C)(C)C5CC[C@]43C)[C@@H]2[C@H]1C (stereo partly drawn) , thanks.
### Response active

### Prompt Also need OC(/C=C/c1ccccc1)(Cc1cc(-c2ccccc2)n[nH]1)c1ccccc1 (stereo not drawn) , thanks.
### Response inactive

### Prompt Also need CNC(=O)OCc1c(COC(=O)NC)c2n(c1C)-c1ccc(OC)cc1CCC2 , thanks.
### Response active

### Prompt Also need CN1C(=O)c2ccc3ccccc3c2C1=O , thanks.
### Response inactive

### Prompt Also need O/N=C\c1c(O)ccc2ccccc12 , thanks.
### Response inactive

### Prompt Also need CN(C)c1nc(=Nc2cccc(Cl)c2)ss1 , thanks.
### Response active

### Prompt Also need CCc1c[n+]([O-])c(C)cc1[N+](=O)[O-] , thanks.
### Response inactive

### Prompt Also need O=C(/C=C(/c1ccccc1)N1CCCCC1)c1ccccc1 , thanks.
### Response active
